- System: expanded OPCs
- Procedure Text: cells
- Experimental Context: Rattus norvegicus, 72 h, read-out: 10 µM (% DMSO), alamarBlue viability of expanded OPCs, compound at 10 µM, sheet All Tox data
Please respond with reported viability at 10 µM for every item in the list.
Answers are plain numbers, in %.

Worked set:
COc1cc(C(=O)NC2CCCNC2)cc(OC)c1OC (stereo not shown) [Troxipide]	109
Oc1ccc2c3c1O[C@H]1c4[nH]c5ccccc5c4C[C@@]4(O)[C@@H](C2)N(CC2CC2)CC[C@]314 [Naltrindole]	17.9
CCN1CCCC1CNC(=O)c1cc(S(N)(=O)=O)ccc1OC (stereo not shown) [Sulpiride]	115
CCN(CC)C(=S)SSC(=S)N(CC)CC [Disulfiram]	13.8

Each compound below has a recorded value; state its viability at 10 µM.
1. COc1cc(OC)c(C(=O)CCCN2CCCC2)c(OC)c1 [Buflomedil]
2. CC(=O)OCC(CCn1cnc2cnc(N)nc21)COC(C)=O [Famciclovir]
3. COc1ccc(C2CNC(=O)C2)cc1OC1CCCC1 (stereo not shown) [Rolipram]
4. Cn1nnc2c(C(N)=O)ncn2c1=O [Temozolomide]
5. C[C@H]1CCC[C@H](O)CCCCCc2cc(O)cc(O)c2C(=O)O1 [Zeranol]
6. CCOC(=O)c1ncn2c1CN(C)C(=O)c1cc(F)ccc1-2 [Flumazenil]
7. CN1CC(=O)N2[C@H](c3ccc4c(c3)OCO4)c3[nH]c4ccccc4c3C[C@@H]2C1=O [Tadalafil]

Outgoing:
1: 124; 2: 106; 3: 86.8; 4: 100; 5: 69.3; 6: 95.5; 7: 93.9

---

- System: expanded OPCs
- Procedure Text: cells
- Experimental Context: alamarBlue viability of expanded OPCs, compound at 10 µM, relative to DMSO control
Please provide measured 10 µM (% DMSO) for the entries that follow.
Give bare numbers, in % DMSO.

C[C@H]1C[C@@H]2[C@H]([C@@H](O)C[C@@]3(C)[C@H]2CC[C@]3(O)C(=O)CO)[C@@]2(C)C=CC(=O)C=C12	102.3
CCOC(=O)[C@H](CCc1ccccc1)N[C@@H](C)C(=O)N1Cc2ccccc2C[C@H]1C(=O)O	85.6
CC1=C(/C=C/C(C)=C/C=C/C(C)=C\C(=O)O)C(C)(C)CCC1	136.3
CC12CC3CC(C)(C1)CC(N)(C3)C2 [Memantine]	67.0
C[N+]1(C)CCC(OC(=O)C(O)(c2ccccc2)C2CCCC2)C1 (stereo not drawn) [Glycopyrrolate]	113.1
CC(=O)CC(c1ccccc1)c1c(O)c2ccccc2oc1=O (stereo not drawn)	96.2
Cc1cnc(C(=O)NCCc2ccc(S(=O)(=O)NC(=O)NC3CCCCC3)cc2)cn1 [Glipizide]	83.0
O=C1CN(/N=C/c2ccc([N+](=O)[O-])o2)C(=O)N1	87.2

Need 10 µM (% DMSO) for each of these molecules.
1. CN(C)c1ccc(O)c2c1C[C@H]1C[C@H]3[C@H](N(C)C)C(O)=C(C(N)=O)C(=O)[C@@]3(O)C(O)=C1C2=O
2. CC(=O)OCC(=O)[C@@]1(O)CC[C@H]2[C@@H]3CCC4=CC(=O)C=C[C@]4(C)[C@H]3[C@@H](O)C[C@@]21C [Prednisolone acetate]
3. NC12CC3CC(CC(C3)C1)C2

Outgoing:
83.5
109.9
77.6
